biological target: human HSL (Homo sapiens); construct: generate a full length human HSL ORF with a 3′-His6 tag; test: Human Hormone-Sensitive Lipase (HSL) enzyme inhibition assay (colorimetric, DMPT substrate); conditions: human full length HSL-His6, 2,3-dimercapto-1-propanol tributyrate substrate, 37° C. 20 minutes, absorbance at 405 nm; read-out: HSL hum IC50
observation-type: IC50 (µM)
Numbers only here, please. The scale is µM.

Please fill in: IC50 reported for COC[C@]1(O)CC[C@]2(CCN(c3ccc(C4CC(F)(F)C4)cc3)C2=O)CC1 [Example 342] = 0.03

Please fill in: IC50 reported for CC[C@]1(O)CC[C@]2(CCN(c3ccc(CC(F)(F)F)cc3)C2=O)CC1 [Example 79] = 0.03

Please fill in: IC50 reported for CC[C@]1(O)CC[C@]2(CCN(c3ccc(O[C@H](C)C(F)(F)F)cc3)C2=O)CC1 [Example 165b] = 0.03

Please fill in: IC50 reported for CC(C)[C@]1(O)CC[C@]2(CCN(c3ccc(OC(F)(F)F)cc3)C2=O)CC1 [Example 68] = 0.03

Please fill in: IC50 reported for O=C1N(c2ccc(OCC(F)(F)F)cc2)CC[C@]12CC[C@@](O)(COCC(F)F)CC2 [Example 244] = 0.03

Please fill in: IC50 reported for C[C@@H](Oc1ccc(N2CC[C@]3(CC[C@@](O)(COCC(F)F)CC3)C2=O)cc1)C(F)(F)F [Example 301] = 0.01

Please fill in: IC50 reported for O=C1N(c2ccc(OS(=O)(=O)C3CC3)cc2)CC[C@]12CC[C@@](O)(C(F)(F)F)CC2 [Example 189] = 0.1

Please fill in: IC50 reported for CC(Oc1ccc(N2CCC3(CCC(O)CC3)C2=O)cc1)C(F)(F)F (mixture of isomers) [Example 162] = 0.22

Please fill in: IC50 reported for CC[C@]1(O)CC[C@]2(CCN(c3ccc4c(c3)OC(F)(F)O4)C2=O)CC1 [Example 337] = 0.08

Please fill in: IC50 reported for COCCC[C@]1(O)CC[C@]2(CCN(c3ccc(CC(F)(F)F)cc3)C2=O)CC1 [Example 93] = 0.02

----------
Target: human HSL (Homo sapiens, UniProt Q05469)
Construct: generate a full length human HSL ORF with a 3′-His6 tag
Sequence (Q05469 1-1076): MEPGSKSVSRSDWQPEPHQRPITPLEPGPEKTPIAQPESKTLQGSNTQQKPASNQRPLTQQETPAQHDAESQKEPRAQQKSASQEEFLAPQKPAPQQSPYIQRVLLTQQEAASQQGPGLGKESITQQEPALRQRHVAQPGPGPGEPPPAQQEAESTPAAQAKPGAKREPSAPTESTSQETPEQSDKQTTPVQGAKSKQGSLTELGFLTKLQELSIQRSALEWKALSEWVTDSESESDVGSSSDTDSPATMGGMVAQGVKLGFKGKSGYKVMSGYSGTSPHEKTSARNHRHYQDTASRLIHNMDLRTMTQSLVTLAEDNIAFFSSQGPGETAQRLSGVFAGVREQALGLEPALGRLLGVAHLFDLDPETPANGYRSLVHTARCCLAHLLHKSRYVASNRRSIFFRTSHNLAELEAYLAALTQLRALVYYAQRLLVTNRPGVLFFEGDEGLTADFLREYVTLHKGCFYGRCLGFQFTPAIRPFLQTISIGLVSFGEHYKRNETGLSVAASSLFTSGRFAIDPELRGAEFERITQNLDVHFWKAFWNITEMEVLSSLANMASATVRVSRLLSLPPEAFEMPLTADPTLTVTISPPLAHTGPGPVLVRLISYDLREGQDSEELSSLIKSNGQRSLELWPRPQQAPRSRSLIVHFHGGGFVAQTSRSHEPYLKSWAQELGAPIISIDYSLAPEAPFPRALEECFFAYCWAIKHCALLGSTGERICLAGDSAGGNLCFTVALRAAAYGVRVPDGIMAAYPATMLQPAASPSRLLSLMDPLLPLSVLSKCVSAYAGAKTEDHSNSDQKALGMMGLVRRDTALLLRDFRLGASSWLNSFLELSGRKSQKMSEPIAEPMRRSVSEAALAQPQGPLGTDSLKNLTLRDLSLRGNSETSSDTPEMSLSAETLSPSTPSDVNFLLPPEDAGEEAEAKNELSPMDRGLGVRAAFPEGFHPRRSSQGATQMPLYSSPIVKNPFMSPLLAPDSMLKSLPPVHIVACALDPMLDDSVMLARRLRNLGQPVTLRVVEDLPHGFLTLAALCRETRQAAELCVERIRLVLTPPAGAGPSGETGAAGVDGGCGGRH
Test: Human Hormone-Sensitive Lipase (HSL) enzyme inhibition assay (colorimetric, DMPT substrate)
Conditions: human full length HSL-His6, 2,3-dimercapto-1-propanol tributyrate substrate, 37° C. 20 minutes, absorbance at 405 nm; read-out: HSL hum IC50
observation-type: pIC50
Reminder that pIC50 means the negative base-10 logarithm of the concentration expressed in mol/L.

Please fill in: pIC50 reported for `C=C(C)[C@]1(O)CC[C@]2(CCN(c3ccc(OCC(F)(F)F)cc3)C2=O)CC1` = 7.52

Please fill in: pIC50 reported for `O=C1N(c2ccc(OC(F)(F)F)cc2)CC[C@]12CC[C@@H](S(=O)(=O)c1ccccc1)CC2` = 7.52

Please fill in: pIC50 reported for `CCC[C@]1(O)CC[C@]2(CCN(c3ccc(C(F)(F)F)cc3)C2=O)CC1` = 7.52
